- System: HeLa Kyoto;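 further: HeLa Kyoto cells arrested at G1/S by double thymidine block, proteins quantified by TMT10plex mass spectrometry in mild NP-40 versus SDS extracts, three biological replicates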
- method: solubility in G1/S (NP-40 vs SDS abundance) (log2 ratio); higher = more soluble
- study conditions: cell cycle stage: G1/S
# binarize solubility in G1/S (log2): threshold 0.3 inclusive, high side 1, low side -1

Request: Identify whether the reported solubility in G1/S (log2) of the following sequence is 0.3 or greater: MTDGILGKAATMEIPIHGNGEARQLPEDDGLEQDLQQVMVSGPNLNETSIVSGGYGGSGDGLIPTGSGRHPSHSTTPSGPGDEVARGIAGEKFDIVKKWGINTYKCTKQLLSERFGRGSRTVDLELELQIELLRETKRKYESVLQLGRALTAHLYSLLQTQHALGDAFADLSQKSPELQEEFGYNAETQKLLCKNGETLLGAVNFFVSSINTLVTKTMEDTLMTVKQYEAARLEYDAYRTDLEELSLGPRDAGTRGRLESAQATFQAHRDKYEKLRGDVAIKLKFLEENKIKVMHKQLLLFHNAVSAYFAGNQKQLEQTLQQFNIKLRPPGAEKPSWLEEQ [ARFIP2]
Response: 1

Request: Identify whether the reported solubility in G1/S (log2) of the following sequence is 0.3 or greater: MAESPTEEAATAGAGAAGPGASSVAGVVGVSGSGGGFGPPFLPDVWAAAAAAGGAGGPGSGLAPLPGLPPSAAAHGAALLSHWDPTLSSDWDGERTAPQCLLRIKRDIMSIYKEPPPGMFVVPDTVDMTKIHALITGPFDTPYEGGFFLFVFRCPPDYPIHPPRVKLMTTGNNTVRFNPNFYRNGKVCLSILGTWTGPAWSPAQSISSVLISIQSLMTENPYHNEPGFEQERHPGDSKNYNECIRHETIRVAVCDMMEGKCPCPEPLRGVMEKSFLEYYDFYEVACKDRLHLQGQTMQDPFGEKRGHFDYQSLLMRLGLIRQKVLERLHNENAEMDSDSSSSGTETDLHGSLRV [UBE2Z]
Response: 1

Request: Identify whether the reported solubility in G1/S (log2) of the following sequence is 0.3 or greater: MSAKDERAREILRGFKLNWMNLRDAETGKILWQGTEDLSVPGVEHEARVPKKILKCKAVSRELNFSSTEQMEKFRLEQKVYFKGQCLEEWFFEFGFVIPNSTNTWQSLIEAAPESQMMPASVLTGNVIIETKFFDDDLLVSTSRVRLFYV [PDE6D]
Response: -1

Request: Identify whether the reported solubility in G1/S (log2) of the following sequence is 0.3 or greater: MAELYVKPGNKERGWNDPPQFSYGLQTQAGGPRRSLLTKRVAAPQDGSPRVPASETSPGPPPMGPPPPSSKAPRSPPVGSGPASGVEPTSFPVESEAVMEDVLRPLEQALEDCRGHTRKQVCDDISRRLALLQEQWAGGKLSIPVKKRMALLVQELSSHRWDAADDIHRSLMVDHVTEVSQWMVGVKRLIAEKRSLFSEEAANEEKSAATAEKNHTIPGFQQAS [SRA1]
Response: -1

Request: Identify whether the reported solubility in G1/S (log2) of the following sequence is 0.3 or greater: MSDLQAAEGPGSWSPTARPGSAGGVGDCQGVEGSQAAASENEDLENKDTSLLASATDPEPCSSPHRPQMVSPVSKDATEDLRKATGPLEAQALVKQDLLPADQAQVLNEMAKYQVPQRSGDIVMIQSEHTGAIDVLSADLESADLLGDHRKVSPPLMAPPCIWTFAKVKEFKSKLGKEKNSRLVVKRGEVVTIRVPTHPEGKRVCWEFATDDYDIGFGVYFDWTPVTSTDITVQVSDSSDDEDEEEEEEEEIEEPVPAGDVERGSRSSLRGRYGEVMPVYRRDSHRDVQAGSHDYPGEGIYLLKFDNSYSLLRNKTLYFHIYYTS [TMED8]
Response: 1
